experiment: Microsomal metabolic stability, rat; assay type: in vitro ADME
Exercise: state measured Metabolic stability (% remaining at 30 min) Rat for each of the compounds provided.
Answer with a number only, understood to be in %.

Request: // lookup Metabolic stability (% remaining at 30 min) Rat for COc1ccc(CCN(Cc2ccc(N3CC[C@H](C(=O)O)C3)cc2)c2nc3c(F)c(F)cc(F)c3s2)cc1 [Compound 43]
Response: 80

Request: Recorded Metabolic stability (% remaining at 30 min) Rat for COc1ccc(CCN(c2nc3cccc(F)c3s2)C(C)c2ccc(N3CC[C@H](C(=O)O)C3)cc2)cc1 (stereo partly drawn) [Compound 42] , please?
Response: 43

Request: Returns the measured Metabolic stability (% remaining at 30 min) Rat for the input compound. Input: COc1ccc(CCN(c2nc3cccc(F)c3s2)C(C)c2cccc(N3CC[C@@H](C(=O)O)C3)c2)cc1 (stereo partly drawn) [Compound 41]
Response: 58

====

Exercise: state measured AUC for each of the compounds provided.
test: Rat pharmacokinetics (po and iv) and bioavailability; assay type: in vivo; settings: in vivo, po, 30 mg/kg, 30 mpk
The response must be a number in ng·h/mL with no trailing unit.

Request: I would be grateful if you could share the reported AUC for COc1ccc(CCN(Cc2ccc(N3CC[C@H](C(=O)O)C3)cc2)c2nc3cccc(F)c3s2)cc1 [Compound 25] .
Response: 53000

Request: What measured AUC goes with COc1ccc(CCN(c2nc3cccc(F)c3s2)C(C)c2cccc(N3CC[C@@H](C(=O)O)C3)c2)cc1 (stereo partly shown) [Compound 41] ?
Response: 28500

Request: Quick check: AUC of COc1ccc(CCN(Cc2ccc(C#CC(=O)O)cc2)c2nc3cccc(F)c3s2)cc1 [Compound C0001, reference compound] ?
Response: 25600

Request: Entry COc1ccc(CCN(Cc2ccc(N3CC[C@H](C(=O)O)C3)cc2)c2nc3c(F)c(F)cc(F)c3s2)cc1 [Compound 43] has what AUC?
Response: 55300

====

target: KARS1 and 37LR (Homo sapiens, UniProt Q15046); construct: KARS1 (1-207aa); experiment: Cell-free ELISA of KARS1 and 37LR (laminin receptor) binding; settings: 10 µM compound, 1 hour, plate coated with KARS1 (1-207aa), LRF
Sequence (Q15046 1-207): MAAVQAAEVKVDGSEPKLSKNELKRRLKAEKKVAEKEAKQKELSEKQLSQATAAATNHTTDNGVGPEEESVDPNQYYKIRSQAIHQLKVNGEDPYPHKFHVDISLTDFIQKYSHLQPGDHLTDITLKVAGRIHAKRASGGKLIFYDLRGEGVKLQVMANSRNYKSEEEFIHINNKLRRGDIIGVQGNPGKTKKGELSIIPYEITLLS
READOUT KIND: inhibition at 10 µM (%)
Write down the numeric answer in % and omit the unit.

Request: Can you share its inhibition at 10 µM? I mean this compound: COc1ccc(CCN(Cc2ccc(C(=O)N3CCC(C(=O)O)C3)cc2)c2nc3cccc(F)c3s2)cc1 (centres unmarked)
Response: 86.4

Request: Sample `COc1ccc(CCN(Cc2ccc(C(=O)NCC(=O)O)cc2)c2nc3cccc(F)c3s2)cc1` — what was its inhibition at 10 µM?
Response: 68.2

Request: GET /values?readout=inhibition at 10 µM&item= `C#Cc1cccc(CN(CCc2ccc(OC)cc2)c2nc3cccc(F)c3s2)c1`
Response: 8.5

Request: Data request, read-out inhibition at 10 µM, for COc1ccc(CCN(Cc2cccc(N3CCC(C(=O)O)C3)c2)c2nc3cccc(F)c3s2)cc1 (centres unmarked)
Response: 79

Request: Please report the recorded inhibition at 10 µM for `COc1ccc(CCN(Cc2ccc(NC3(C(=O)O)CCC3)cc2)c2nc3cccc(F)c3s2)cc1` .
Response: 41.9

Request: Which inhibition at 10 µM is listed for `COc1ccc(CCN(Cc2ccc(N3CCC[C@H]3C(=O)O)cc2)c2nc3cccc(F)c3s2)cc1` ?
Response: 75.8

Request: What value of measured inhibition at 10 µM is listed for `COc1ccc(CCNc2ncc3ccn(C)c3n2)cc1` ?
Response: 14.8

Request: What value of inhibition at 10 µM has been recorded for this entry: `COc1ccc(CCN(Cc2cccc(C#C[Si](C)(C)C)c2)c2nc3cccc(F)c3s2)cc1`
Response: 13.4

Request: Which inhibition at 10 µM reading was recorded for the compound `COc1ccc(CCN(Cc2cccc(N3CC[C@@H](C(=O)O)C3)c2)c2nc3cccc(F)c3s2)cc1` ?
Response: 71.6

Request: Which value of inhibition at 10 µM has been reported for `COc1ccc(CCN(Cc2ccc3c(c2)CN(C(N)=O)C3)c2nc3cccc(F)c3s2)cc1` in the records?
Response: 64

Request: # input compound: `COc1ccc(CCN(Cc2ccc(C#CC(N)=O)cc2)c2nc3cccc(F)c3s2)cc1` ; wanted: its inhibition at 10 µM
Response: 0.8

Request: // query inhibition at 10 µM value for entry `COc1ccc(CCN(Cc2ccc(C(=O)N[C@@H](C(=O)O)C(C)C)cc2)c2nc3cccc(F)c3s2)cc1`
Response: 86.2

Request: // inhibition at 10 µM lookup, key: `C#Cc1ccc(CN(CCc2ccc(OC)cc2)c2ncc3ccn(C)c3n2)cc1`
Response: 3

Request: Requested read-out: inhibition at 10 µM. Entry: COc1ccc(CCN(Cc2ccc(N3CCC(C(=O)O)C3)cc2)c2nc3cccc(F)c3s2)cc1 (centres unmarked)
Response: 83.9
